This collection of values is drawn from patent US20250304571A1.

- System: 786-O (renal cell carcinoma) cells
- EXPERIMENT NOTES: Cell viability (CellTiter Glo) assay, inhibition of 786-O cell proliferation
- Assay type: cell-based
- ASSAY CONDITIONS: Homo sapiens, 786-0; 786-O cells, 72 hours, CellTiter Glo; read-out: IC50, inhibition of 786-O cell proliferation
Below is a list of entries, each paired with its recorded IC50 value.

>>> df
                                   compound                       target_entity  assay_endpoint     test_value
0  N=C(OCc1nc(Nc2ccc(Oc3ccccc3)cc2)c2cc[nH]c2n1)N1CCOCC1 [Compound D4]  786-O (renal cell carcinoma) cells            IC50  0.1 to 0.5 µM

Now for the compound whose IC50 we want.
[Q] Suppose we examine the compound CC1(C)C(=O)N(c2cnc(C3CCOCC3)nc2)c2nc(COC(=N)N3CCC[C@@H]3C(F)(F)F)nc(NC3CCC3)c21 [Compound E89] ; what IC50 value has been reported?
[A] 0.5 to 5 µM
